Biological target: aldehyde dehydrogenase (ADH) (Ketogulonicigenium vulgare, UniProt F9Y7W8)
Assay: Effects of metal ions, enzyme inhibitors and PQQ on the activity of ADH
Assay type: biochemical, Gluconobacter oxydans DSM 4025 (FERM BP-3812)
READOUT NAME: effect on the enzyme activity (in words)

Take a look at these entries with their results.
O=C(O)c1cc(C(=O)O)c2c(n1)C(=O)C(=O)c1cc(C(=O)O)[nH]c1-2 [PQQ, pyrroloquinoline quinone, reference compound] :: Stimulator
[Fe+3] :: inhibited
[Na+].[Na+].[O]=[Mo](=[O])([O-])[O-] :: inhibited
[Ca+2] :: Stimulator
[Ti+4] :: inhibited

# input Which effect on the enzyme activity (in words) is reported with aldehyde dehydrogenase (ADH) (Ketogulonicigenium vulgare, UniProt F9Y7W8) for this entry: `[Mg+2]` ?
# output inhibited

###

Below, each of the compounds is paired with its reported Relative activity (%) value.
Target: aldehyde dehydrogenase (ADH) (Ketogulonicigenium vulgare, UniProt F9Y7W8)
Assay: Effects of metal ions, enzyme inhibitors and PQQ on the activity of ADH
Format: biochemical, Gluconobacter oxydans DSM 4025 (FERM BP-3812)
Conditions: metal 0.374 mM; None = 100
Kindly answer with a numeric value in %, unit omitted.

Take a look at these entries with their results.
[Cl-].[Cl-].[Zn+2] :: 21.1
O.O.O.O.O.O.[Cl][Cu][Cl] :: 0

# input May I ask what Relative activity (%) has been recorded for `[Cl][Ti]([Cl])([Cl])[Cl]` ?
# output 80

# input Same for `O.O.O.O.O.O.O.O=S(=O)([O-])[O-].[Cu+2]`
# output 61.9

# input Same for `O.O.O.O.O.O.O.O=S(=O)([O-])[O-].[Zn+2]`
# output 32.6

###

Target: aldehyde dehydrogenase (ADH) (Ketogulonicigenium vulgare, UniProt F9Y7W8)
Test: Electron acceptor suitability for L-sorbosone oxidation
Format: biochemical, Gluconobacter oxydans DSM 4025 (FERM BP-3812)
Conditions: oxidation of L-sorbosone to 2-keto-L-gulonic acid
READOUT NAME: suitability as electron acceptor (in words)

NC(=O)c1ccc[n+]([C@@H]2O[C@H](COP(=O)([O-])OP(=O)(O)OC[C@H]3O[C@@H](n4cnc5c(N)ncnc54)[C@H](O)[C@@H]3O)[C@@H](O)[C@H]2O)c1 [nicotine amide adenine dinucleotide] :: not suitable
NC(=O)c1ccc[n+]([C@@H]2O[C@H](COP(=O)([O-])OP(=O)(O)OC[C@H]3O[C@@H](n4cnc5c(N)ncnc54)[C@H](OP(=O)(O)O)[C@@H]3O)[C@@H](O)[C@H]2O)c1 :: not suitable

###

Molecular target: aldehyde dehydrogenase (ADH) (Ketogulonicigenium vulgare, UniProt F9Y7W8)
Sequence (F9Y7W8 1-429): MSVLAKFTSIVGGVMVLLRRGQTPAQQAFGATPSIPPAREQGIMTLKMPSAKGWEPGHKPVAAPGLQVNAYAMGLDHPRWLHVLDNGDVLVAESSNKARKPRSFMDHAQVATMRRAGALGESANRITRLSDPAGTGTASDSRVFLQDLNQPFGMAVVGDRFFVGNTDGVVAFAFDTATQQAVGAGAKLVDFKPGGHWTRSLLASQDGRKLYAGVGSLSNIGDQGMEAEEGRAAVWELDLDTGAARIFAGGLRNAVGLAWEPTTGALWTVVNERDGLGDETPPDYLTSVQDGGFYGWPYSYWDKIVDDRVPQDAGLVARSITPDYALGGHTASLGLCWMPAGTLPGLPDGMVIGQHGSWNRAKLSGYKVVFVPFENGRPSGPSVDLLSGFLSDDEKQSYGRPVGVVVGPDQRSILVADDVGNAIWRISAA
Assay: Effects of metal ions, enzyme inhibitors and PQQ on the activity of ADH
Type: biochemical, Gluconobacter oxydans DSM 4025 (FERM BP-3812)
Conditions: metal 0.374 mM; None = 100
Below, each of the compounds is paired with its reported Relative activity (%) value.
Kindly answer with a numeric value in %, unit omitted.

O.O=S(=O)([O-])[O-].O=S(=O)([O-])[O-].O=S(=O)([O-])[O-].[Fe+3].[Fe+3] [Fe2 (SO4)3.nH2 O] :: 44.9
O.O.O.O.O.O.O.O=S(=O)([O-])[O-].[Mg+2] :: 39.9

Kindly review the next compound as well.
# input May I ask what Relative activity (%) has been recorded for `O.O.[Na+].[Na+].[O]=[Mo](=[O])([O-])[O-]` ?
# output 42.1
